Biological target: type I IGF receptor
Assay: Inhibition of 125I-hIGF-I binding to human placental membranes (type I IGF receptor binding)
Details: human placental membranes; type I IGF receptor; FIG. 6
Exam item: assign class 1 to entries whose IC50 is below 5 nM and class 0 to entries at or above 5 nM. Note that a value of exactly 5 nM receives class 0.

Look over these answered cases.
GPQALCGAELVDALQF-R1 [IGF130]; class 0
GPETLCGAELVDALQF-R1 [hIGF-I, reference compound]; class 0
GPETLCGAELVDALYL-R1 [IGF122]; class 1

For the next question, use this substance.
Please indicate whether the reported IC50 of FVNQHLCGSHLVEALYL-R1 [IGF132] is strictly below 5 nM.
class 0

* * *

Biological target: human serum carrier proteins
Assay: Inhibition of 125I-hIGF-I binding to acid stable human serum carrier proteins
Conditions: acid stable human carrier proteins; FIG. 7
Reported Endpoint: pIC50
Just the number, please; pIC50 means minus log10 of the concentration in mol/L.

Use these answered entries as a reference point.
GPETLCGAELVDALYL-R1 [IGF122]; 8.68
GPQALCGAELVDALQF-R1 [IGF130]; 8.74
GPETLCGAELVDALQF-R1 [hIGF-I, reference compound]; 9.38

Kindly review the next substance as well.
Measured pIC50, GPQALCGAELVDALYL-R1 [IGF252] : 6.52
